# target desc: HCV NS3/4A protease complex, BMS strain (UniProt P27958, C1454S/C1711G, species not given/STRAIN_BMS)
# experiment summary: Recombinant HCV NS3/4A protease complex FRET peptide assay (BMS strain)
# Type: biochemical, HCV genotype 1a
# measurement setup: NS3/4A BMS strain; read-out: IC50 range
pIC50: −log10 of the molar value.
readout kind: pIC50

Please review the following examples before continuing.
| compound | pIC50 |
| --- | --- |
| C=CC1CC1(NC(=O)C1CC(Oc2nc(Br)c(OCOCC[Si](C)(C)C)c3ccccc23)CN1C(=O)C(NC(=O)OC(C)(C)C)C(C)(C)C)C(=O)NS(=O)(=O)C1CC1 (stereo not shown) | > 7.00 |
| C=C[C@@H]1C[C@]1(NC(=O)[C@@H]1CC(Oc2nccc3cc(OC)ccc23)CN1C(=O)[C@@H](NC(N)=O)C(C)(C)C)C(=O)NS(=O)(=O)C1CC1 (stereo partly shown) | > 7.00 |
| C=C[C@@H]1C[C@]1(NC(=O)[C@@H]1C[C@@H](Oc2ncc(C)c3ccccc23)CN1C(=O)[C@@H](NC(=O)OC(C)(C)C)C(C)(C)C)C(=O)NS(=O)(=O)C1CC1 | > 7.00 |

Which pIC50 value belongs to C=CC1C[C@]1(NC(=O)[C@@H]1C[C@@H](Oc2nnc(-n3ccnc3)c3ccccc23)CN1C(=O)[C@@H](N)C(C)(C)C)C(=O)NS(=O)(=O)C1CC1 (stereo partly shown) ?
6.00 to 7.00

Which pIC50 value belongs to C=C[C@@H]1C[C@]1(NC(=O)[C@@H]1C[C@@H](Oc2nccc3cc(Br)ccc23)CN1C(=O)[C@@H](NC(=O)OC(C)(C)C)C(C)(C)C)C(=O)NS(=O)(=O)C1CC1 ?
> 7.00

Which pIC50 value belongs to C=C[C@@H]1C[C@]1(NC(=O)[C@@H]1C[C@@H](Oc2nc(C3CC3)cc3ccccc23)CN1C(=O)[C@@H](NC(=O)OC(C)(C)C)C(C)(C)C)C(=O)NS(=O)(=O)C1CC1 ?
> 7.00

Which pIC50 value belongs to C=C[C@@H]1C[C@]1(NC(=O)[C@@H]1C[C@@H](Oc2cc(-c3ccccc3OC)nc3c(C)noc23)CN1C(=O)[C@@H](NC(=O)OC(C)(C)C)C(C)(C)C)C(=O)NS(=O)(=O)C1CC1 ?
6.00 to 7.00

Which pIC50 value belongs to C=C[C@@H]1C[C@]1(NC(=O)[C@@H]1C[C@@H](Oc2nccc3c4c(ccc23)OCC4)CN1C(=O)[C@@H](NC(=O)OC(C)(C)C)C(C)(C)C)C(=O)NS(=O)(=O)C1CC1 ?
> 7.00

Which pIC50 value belongs to C=CC1C[C@]1(NC(=O)[C@@H]1C[C@@H](Oc2nccc(-c3cccs3)n2)CN1C(=O)[C@@H](NC(=O)CC1CC1)C(C)(C)C)C(=O)NS(=O)(=O)C1CC1 (stereo partly shown) ?
> 7.00

Which pIC50 value belongs to C=C[C@@H]1C[C@]1(NC(=O)[C@@H]1C[C@@H](Oc2nccc3cc(OC)ccc23)CN1C(=O)[C@@H](NC(=O)N(C)[C@H](C(=O)OC)C(C)C)C(C)(C)C)C(=O)NS(=O)(=O)C1CC1 ?
> 7.00

###

# System: HCV replicon in Huh7 cells
# experiment summary: HCV replicon cell-based assay
# Set-up: species or system HCV strain 1B
# measurement setup: Hepatitis C virus, Huh-7; HCV replicon, Huh7 cells; read-out: EC50 range
pEC50: −log10 of the molar value.
pEC50 for assorted compounds

Please review the following examples before continuing.
| compound | measurement |
| --- | --- |
| C=CC1C[C@]1(NC(=O)[C@@H]1C[C@@H](Oc2cccc3c(Cl)ccnc23)CN1C(=O)[C@@H](NC(=O)OC(C)(C)C)C(C)(C)C)C(=O)NS(=O)(=O)C1CC1 (some centres unmarked) | 5.00 to 6.00 |
| C=CC1CC1(NC(=O)C1CC(Oc2nc(Br)c(O)c3ccccc23)CN1C(=O)C(NC(=O)OC(C)(C)C)C(C)(C)C)C(=O)NS(=O)(=O)C1CC1 (centres unmarked) | 6.00 to 7.00 |
| C=C[C@@H]1C[C@]1(NC(=O)[C@@H]1C[C@@H](Oc2nccc3cc(OC)ccc23)CN1C(=O)[C@@H](NC(=O)OC(C)(C)C(F)(F)F)[C@H](C)OC)C(=O)NS(=O)(=O)C1CC1 | > 7.00 |
| C=C[C@@H]1C[C@]1(NC(=O)[C@@H]1C[C@@H](Oc2nccc3cc(OC)ccc23)CN1C(=O)[C@@H](NC(=O)OC(C)(C)C(F)(F)F)C(C)(C)C)C(=O)NS(=O)(=O)C1CC1 | > 7.00 |

Continue with the compound presented below.
Which pEC50 value belongs to C=C[C@@H]1C[C@]1(NC(=O)[C@@H]1C[C@@H](Oc2ccc3ccccc3n2)CN1C(=O)[C@@H](NC(=O)OC(C)(C)C)C(C)(C)C)C(=O)NS(=O)(=O)C1CC1 ?
6.00 to 7.00
